# Target Under Test: Human TRPV3 (Homo sapiens, UniProt Q8NET8)
# Construct: expressed in transfected cells; host or cells: CHO cells
# Sequence (Q8NET8 1-790): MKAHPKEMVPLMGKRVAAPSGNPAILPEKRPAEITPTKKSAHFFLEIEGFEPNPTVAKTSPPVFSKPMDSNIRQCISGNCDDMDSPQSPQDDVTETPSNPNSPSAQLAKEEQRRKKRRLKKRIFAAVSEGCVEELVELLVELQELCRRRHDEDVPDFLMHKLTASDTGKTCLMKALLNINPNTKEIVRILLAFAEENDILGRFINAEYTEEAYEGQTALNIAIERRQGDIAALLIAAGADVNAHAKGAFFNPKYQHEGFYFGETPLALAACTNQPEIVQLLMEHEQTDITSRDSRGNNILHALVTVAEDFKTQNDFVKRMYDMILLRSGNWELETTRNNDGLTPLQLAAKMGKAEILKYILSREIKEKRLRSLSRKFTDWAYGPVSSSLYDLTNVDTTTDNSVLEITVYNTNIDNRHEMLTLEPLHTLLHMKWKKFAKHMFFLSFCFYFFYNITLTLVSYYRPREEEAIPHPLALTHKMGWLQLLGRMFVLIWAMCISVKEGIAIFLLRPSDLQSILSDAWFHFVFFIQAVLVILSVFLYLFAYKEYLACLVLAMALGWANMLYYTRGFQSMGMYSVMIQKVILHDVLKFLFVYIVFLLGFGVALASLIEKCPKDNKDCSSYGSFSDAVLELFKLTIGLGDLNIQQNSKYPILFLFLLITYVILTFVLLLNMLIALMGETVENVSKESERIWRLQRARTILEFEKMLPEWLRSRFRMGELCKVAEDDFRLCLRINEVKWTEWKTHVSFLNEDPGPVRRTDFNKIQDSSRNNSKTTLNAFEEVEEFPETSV
# Protocol Text: 45Calcium uptake assay: inhibition of 2-APB induced cellular uptake of radioactive calcium in human TRPV3 expressing CHO cells
# Assay type: cell-based
# Assay Conditions: 1.0 μM test compound, 2-APB 500 μM, read-out: Percentage inhibition at 1.0 μM
Measured Metric: inhibition at 1 µM (%)
// note: answer is a bare numeric in %

COc1cccc(/C=C/c2oc3ccccc3c(=O)c2-c2ccc(C#N)cc2)c1OCC(C)(C)C [Example 7]
89.8
COc1cccc(/C=C/c2oc3ccc(F)cc3c(=O)c2-c2ccc(C#N)cc2)c1OCC1CCC1 [Example 17]
78.2
COc1cccc(/C=C/c2oc3cc(F)ccc3c(=O)c2-c2ccc(C#N)cc2)c1OC1CCCC1 [Example 11]
84.6

Query: For the compound N#Cc1ccc(-c2c(/C=C/c3cccc(OC(F)F)c3OCC3CC3)oc3ccccc3c2=O)cc1 [Example 4] , what inhibition at 1 µM is on record?
Result: 92.9

Query: Please give the measured inhibition at 1 µM for this compound: COc1cccc(/C=C/c2oc3cc(F)ccc3c(=O)c2-c2ccc(C#N)cc2)c1OCC(C)C [Example 13]
Result: 92.9

Query: Tell me the measured inhibition at 1 µM of COc1cccc(/C=C/c2oc3ccccc3c(=O)c2-c2ccc(C(F)(F)F)cc2)c1OCC1CC1 [Example 2] , please.
Result: 63.1

Query: Consider the compound COc1cccc(/C=C/c2oc3ccccc3c(=O)c2-c2ccc(C#N)cc2)c1OCC1CC1 [Example 3] and give its measured inhibition at 1 µM.
Result: 90.4

Query: Quick one: inhibition at 1 µM for COc1cccc(/C=C/c2oc3ccc(F)cc3c(=O)c2-c2ccc(C#N)cc2)c1OCC(C)(C)C [Example 20] ?
Result: 74.3
